- Test system: MDA-MB-435
- MEASUREMENT PROTOCOL: NCI-60 screening, one-dose (10 µM) and five-dose, SRB
- Format: cell-based
- RUN PARAMETERS: Homo sapiens, MDA-MB-435, read-out: Growth percentage, 10 μM; MDA-MB-435, Melanoma
Known activity at 10 µM of a selection of compounds
Give the quantity in %, number only.

See these solved cases before continuing.
- CHEM SMILES: "COc1ccc(/C=C/C(=O)c2sc(SCC(=O)N3CCN(c4cc5c(cc4F)c(=O)c(C(=O)O)cn5C4CC4)CC3)nc2C)cc1"
  UNIT SPEC: "%"
  activity at 10 µM: 108
- CHEM SMILES: "COc1cccc(/C=C/C(=O)c2sc(SCC(=O)N3CCN(c4cc5c(cc4F)c(=O)c(C(=O)O)cn5C4CC4)CC3)nc2C)c1OC"
  UNIT SPEC: "%"
  activity at 10 µM: 53.2
- CHEM SMILES: "Cc1nc(SCC(=O)N2CCN(c3cc4c(cc3F)c(=O)c(C(=O)O)cn4C3CC3)CC2)sc1C(=O)/C=C/c1cccc([N+](=O)[O-])c1"
  UNIT SPEC: "%"
  activity at 10 µM: 71.9
- CHEM SMILES: "Cc1nc(SCC(=O)N2CCN(c3cc4c(cc3F)c(=O)c(C(=O)O)cn4C3CC3)CC2)sc1C(=O)/C=C/c1cccc(F)c1"
  UNIT SPEC: "%"
  activity at 10 µM: -3.7
- CHEM SMILES: "Cc1nc(SCC(=O)N2CCN(c3cc4c(cc3F)c(=O)c(C(=O)O)cn4C3CC3)CC2)sc1C(=O)/C=C/c1ccc(F)cc1"
  UNIT SPEC: "%"
  activity at 10 µM: 104

input: Reported activity at 10 µM, compound `Cc1nc(SCC(=O)N2CCN(c3cc4c(cc3F)c(=O)c(C(=O)O)cn4C3CC3)CC2)sc1C(=O)/C=C/c1ccc(N(C)C)cc1` : ____
output: 26.6

---

# activity at 10 µM annotations
- Tested on: COLO 205
- MEASUREMENT PROTOCOL: NCI-60 screening, one-dose (10 µM) and five-dose, SRB
- Assay type: cell-based, human
- RUN PARAMETERS: Homo sapiens; 10 μM; COLO 205, Colon Cancer; read-out: Growth percentage
// return numeric value only (unit: %, not printed)

Below are worked cases with known answers.
- COMPOUND: "Cc1nc(SCC(=O)N2CCN(c3cc4c(cc3F)c(=O)c(C(=O)O)cn4C3CC3)CC2)sc1C(=O)/C=C/c1ccc([N+](=O)[O-])cc1 [Compound 4h]"
  UNIT SPEC: "%"
  READOUT VALUE: 95.9
- COMPOUND: "Cc1nc(SCC(=O)N2CCN(c3cc4c(cc3F)c(=O)c(C(=O)O)cn4C3CC3)CC2)sc1C(=O)/C=C/c1cccc(F)c1 [Compound 4d]"
  UNIT SPEC: "%"
  READOUT VALUE: 102

input: # get_value(readout= activity at 10 µM, system= COLO 205) for Cc1nc(SCC(=O)N2CCN(c3cc4c(cc3F)c(=O)c(C(=O)O)cn4C3CC3)CC2)sc1C(=O)/C=C/c1cccc(Cl)c1 [Compound 4b]
output: 114
